From: patent US20190292155A1

Molecular target: human complement factor D (Homo sapiens, UniProt P00746)
Construct: purchased R&D Systems 1824-SE
Sequence (P00746 26-253): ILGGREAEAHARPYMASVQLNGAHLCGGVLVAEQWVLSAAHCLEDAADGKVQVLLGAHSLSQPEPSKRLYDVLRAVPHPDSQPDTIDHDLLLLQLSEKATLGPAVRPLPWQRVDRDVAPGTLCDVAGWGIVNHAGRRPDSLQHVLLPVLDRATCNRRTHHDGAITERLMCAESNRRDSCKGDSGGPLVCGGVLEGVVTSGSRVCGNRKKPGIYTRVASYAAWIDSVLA
Experiment: In vitro enzyme inhibition of human complement factor D (Z-Lys-SBzl/DTNB, A405)
Type: biochemical
Conditions: biochemical assay, substrate Z-Lys-SBzl; read-out: CFD IC50
Listed compounds paired with reported IC50

{"compound": "CC(CC(=O)O)N(CC(=O)NCc1cccc(Cl)c1F)C(=O)Cn1nc(C(N)=O)c2ccccc21 (stereo not shown) [Example 74]", "targetDesc": "human complement factor D (Homo sapiens, UniProt P00746)", "IC50": "1000 to 10000 nM"}
{"compound": "O=C(CN(C(=O)Cn1nc(-c2ncc[nH]2)c2ccccc21)C1CC1)NCc1cccc(Cl)c1F [Example 98]", "targetDesc": "human complement factor D (Homo sapiens, UniProt P00746)", "IC50": "1000 to 10000 nM"}
{"compound": "CC(N(CC(=O)NCc1cccc(Cl)c1F)C(=O)Cn1nc(C(N)=O)c2ccccc21)C(C)(C)C (stereo not shown) [Example 64]", "targetDesc": "human complement factor D (Homo sapiens, UniProt P00746)", "IC50": "100 to 1000 nM"}
{"compound": "NC(=O)c1nn(CC(=O)N(CC(=O)NCc2ccc(N)cc2F)C2CC2)c2ccccc12 [Example 121]", "targetDesc": "human complement factor D (Homo sapiens, UniProt P00746)", "IC50": "1000 to 10000 nM"}
{"compound": "NCc1ccc2c(C(N)=O)nn(CC(=O)N(CC(=O)NCc3cccc(Cl)c3F)C3CC3)c2c1 [Example 89]", "targetDesc": "human complement factor D (Homo sapiens, UniProt P00746)", "IC50": "1000 to 10000 nM"}
{"compound": "NC(=O)c1nn(CC(=O)N(CC(=O)NCc2cccc(Cl)c2F)C2CCOCC2)c2ccccc12 [Example 29]", "targetDesc": "human complement factor D (Homo sapiens, UniProt P00746)", "IC50": "1000 to 10000 nM"}
{"compound": "CCN(CC(=O)Nc1cccc(Cl)n1)C(=O)Cn1nc(C(N)=O)c2ccccc21 [Example 15]", "targetDesc": "human complement factor D (Homo sapiens, UniProt P00746)", "IC50": "100 to 1000 nM"}
{"compound": "Cc1c(Cl)cccc1CNC(=O)CN(C(=O)Cn1nc(C(N)=O)c2ccccc21)C1CC1 [Example 134]", "targetDesc": "human complement factor D (Homo sapiens, UniProt P00746)", "IC50": "1000 to 10000 nM"}
{"compound": "COc1c(Cl)cccc1CNC(=O)CN(C(=O)Cn1nc(C(N)=O)c2ccccc21)C1CC1 [Example 116]", "targetDesc": "human complement factor D (Homo sapiens, UniProt P00746)", "IC50": "1000 to 10000 nM"}
{"compound": "CC(N(CC(=O)NCc1cccc(Cl)c1F)C(=O)Cn1nc(C(N)=O)c2ccccc21)C(F)(F)F (stereo not shown) [Example 67]", "targetDesc": "human complement factor D (Homo sapiens, UniProt P00746)", "IC50": "100 to 1000 nM"}
{"compound": "CC(=O)c1nn(CC(=O)N(CC(=O)NCc2cccc(Cl)c2F)C2CC2)c2ccccc12 [Example 47]", "targetDesc": "human complement factor D (Homo sapiens, UniProt P00746)", "IC50": "< 100 nM"}
{"compound": "NC(=O)c1nn(CC(=O)N(CC(=O)NCc2cccc(Cl)c2F)C2CC2)c2cccc(F)c12 [Example 97]", "targetDesc": "human complement factor D (Homo sapiens, UniProt P00746)", "IC50": "1000 to 10000 nM"}
{"compound": "NC(=O)n1nc(CC(=O)N(CC(=O)Nc2cccc(Cl)n2)C2CCOCC2)c2ccccc21 [Example 21]", "targetDesc": "human complement factor D (Homo sapiens, UniProt P00746)", "IC50": "1000 to 10000 nM"}
{"compound": "NC(=O)c1nn(CC(=O)N(CC(=O)NCc2cccc(Cl)c2F)C2CC2)c2c(F)cccc12 [Example 88]", "targetDesc": "human complement factor D (Homo sapiens, UniProt P00746)", "IC50": "100 to 1000 nM"}
{"compound": "NC(=O)c1nn(CC(=O)N(CC(=O)NCc2cc(Cl)cc(C(F)(F)F)c2)C2CC2)c2ccccc12 [Example 124]", "targetDesc": "human complement factor D (Homo sapiens, UniProt P00746)", "IC50": "1000 to 10000 nM"}
{"compound": "NC(=O)c1nn(CC(=O)N(CCO)CC(=O)Nc2cccc(Cl)n2)c2ccccc12 [Example 13]", "targetDesc": "human complement factor D (Homo sapiens, UniProt P00746)", "IC50": "1000 to 10000 nM"}
